Molecular target: human Syk (GST-Syk) (Homo sapiens)
Construct: A cDNA fragment encoding human Syk openreading frame was cloned; made in house; host or cells: Sf21 insect cells (baculovirus, transfer vector pAcG2T)
Assay: Syk tyrosine kinase inhibitory assay
Assay type: biochemical
Settings: in vitro; compounds as yielded by solid phase synthesis, purity about 40 to 90%; read-out: Activity grade (IC50 class)
Source text: [Syk Tyrosine Kinase Inhibitory Assay] (1) Preparation of Syk Protein A cDNA fragment encoding human Syk openreading frame was cloned from total RNA of human Burkitt's lymphoma B cell lines, Raji (American Type Culture Collection), with the use of RT-PCR method. The cDNA fragment was inserted into pAcG2T (Pharmingen, San Diego, Calif.) to construct a baculovirus transfer vector. […]
pIC50: −log10 of the molar value.
Overview of recorded pIC50 for various molecules
readout_name: pIC50

{"molecule": "CCC(=O)c1ccc(Nc2nc(-c3ccc(OC)c(OC)c3)cc3nccn23)cc1", "experimental_value": "> 6.30"}
{"molecule": "COc1ccc(-c2cc3nccn3c(NCCc3ccccn3)n2)cc1OC", "experimental_value": "5.70 to 6.30"}
{"molecule": "COC(=O)c1ccc(Nc2nc(-c3ccc(OC)c(OC)c3)cc3nccn23)cc1", "experimental_value": "> 6.30"}
{"molecule": "CCOc1ccc(-c2cc3nccn3c(SCC)n2)cc1OCC", "experimental_value": "> 6.30"}
{"molecule": "COc1ccc(-c2cc3ncnn3c(Nc3ccccc3)n2)cc1OC", "experimental_value": "> 6.30"}
{"molecule": "COc1ccc(-c2cc3nccn3c(N3CCN(c4ccccn4)CC3)n2)cc1OC", "experimental_value": "5.70 to 6.30"}
{"molecule": "CCOC(=O)N1CCN(c2nc(-c3ccc(OC)c(OC)c3)cc3nccn23)CC1", "experimental_value": "5.00 to 5.70"}
{"molecule": "CCSc1nc(-c2cccnc2)cc2nccn12", "experimental_value": "5.00 to 5.70"}
{"molecule": "COc1ccc(-c2cc3nccn3c(N3CCN(C(C)=O)CC3)n2)cc1OC", "experimental_value": "5.70 to 6.30"}
{"molecule": "CCSc1nc(-c2ccc(OC(=O)OC)c(OC)c2)cc2nccn12", "experimental_value": "> 6.30"}
{"molecule": "COc1ccc(-c2cc3nccn3c(Nc3cc(F)cc(F)c3)n2)cc1OC", "experimental_value": "> 6.30"}
{"molecule": "COc1ccc(-c2cc3nccn3c(N(C)C3CCN(C)C3)n2)cc1OC (centres unmarked)", "experimental_value": "5.70 to 6.30"}
{"molecule": "COc1ccc(-c2cc3nccn3c(SCc3ccccc3Cl)n2)cc1OC", "experimental_value": "> 6.30"}
{"molecule": "COc1ccc(-c2cc3nccn3c(NCCN)n2)cc1OC", "experimental_value": "5.70 to 6.30"}
{"molecule": "COc1ccc(-c2cc3nccn3c(Nc3ccc(CCN4C(=O)c5ccccc5C4=O)cc3)n2)cc1OC", "experimental_value": "5.70 to 6.30"}
{"molecule": "COc1ccc(Nc2nc(-c3ccc(OC)c(OC)c3)cc3nccn23)c(O)c1", "experimental_value": "> 6.30"}
{"molecule": "CCSc1nc(-c2ccc(C)c(S(=O)(=O)N3CCN(CCO)CC3)c2)cc2nccn12", "experimental_value": "5.70 to 6.30"}
{"molecule": "COc1cccc(N2CCN(c3nc(-c4ccc(OC)c(OC)c4)cc4nccn34)CC2)c1", "experimental_value": "5.00 to 5.70"}
{"molecule": "COc1ccc(-c2cc3nccn3c(N3CCSCC3)n2)cc1OC", "experimental_value": "5.70 to 6.30"}
{"molecule": "CCSc1nc(-c2ccc(OC)c(OCCCN3CCSCC3)c2)cc2nccn12", "experimental_value": "5.70 to 6.30"}
{"molecule": "CCSc1nc(-c2ccc(SC)c(S(=O)(=O)N3CCN(CCO)CC3)c2)cc2nccn12", "experimental_value": "5.70 to 6.30"}
{"molecule": "COc1ccc(-c2cc3nccn3c(Nc3ccc(F)cc3F)n2)cc1OC", "experimental_value": "> 6.30"}
{"molecule": "CCSc1nc(-c2ccc(OC)c(OCCCN3CCOCC3)c2)cc2nccn12", "experimental_value": "5.70 to 6.30"}
{"molecule": "COc1ccc(-c2cc3nccn3c(Nc3ccc(C(=O)O)cc3)n2)cc1OC", "experimental_value": "> 6.30"}
{"molecule": "CCSc1nc(-c2ccc3c(c2)OCO3)cc2nccn12", "experimental_value": "5.70 to 6.30"}
{"molecule": "CCNC(=O)Oc1ccc(-c2cc3nccn3c(SCC)n2)cc1OC", "experimental_value": "5.70 to 6.30"}
{"molecule": "COc1ccc(-c2cc3nccn3c(N(C)c3ccc([N+](=O)[O-])cc3)n2)cc1OC", "experimental_value": "> 6.30"}
{"molecule": "COc1ccc(N(C)c2nc(-c3ccc(OC)c(OC)c3)cc3nccn23)cc1", "experimental_value": "5.70 to 6.30"}
{"molecule": "COc1ccc(Nc2nc(-c3ccc(OC)c(OC)c3)cc3nccn23)cc1NCCN1CCOCC1", "experimental_value": "5.00 to 5.70"}
{"molecule": "C=CCN(c1ccccc1)c1nc(-c2ccc(OC)c(OC)c2)cc2nccn12", "experimental_value": "> 6.30"}
{"molecule": "COc1ccc(Nc2nc(-c3ccc(OC)c(OC)c3)cc3nccn23)c(C(=O)O)c1", "experimental_value": "> 6.30"}
{"molecule": "COc1ccc(-c2cc3nccn3c(Nc3ccc4[nH]c(=O)[nH]c4c3)n2)cc1OC", "experimental_value": "> 6.30"}
{"molecule": "COc1ccc(-c2cc3nccn3c(Nc3cccc(C(=O)O)c3C)n2)cc1OC", "experimental_value": "5.70 to 6.30"}
{"molecule": "COc1ccc(-c2cc3nccn3c(N3CC[C@@H](NC(=O)C(F)(F)F)C3)n2)cc1OC", "experimental_value": "5.00 to 5.70"}
{"molecule": "COc1ccc(-c2cc3nccn3c(NCCc3c[nH]c4ccccc34)n2)cc1OC", "experimental_value": "> 6.30"}
